This collection of values is drawn from PubChem BioAssay (NCI).

tested on: HCT-116 colon; assay: NCI-60 one-dose screen, 48 h (100 = growth as untreated, 0 = no growth, -100 = all killed); details: 10 µM unless noted
Compounds without any hit were thinned out: in the full panel of roughly 83,000, 20% have a hit.

[
  {
    "compound": "CC/C(=C(\\c1ccc(OCCN2CCOCC2)cc1)c1ccc(OC(=O)Cc2ccccc2)cc1)c1ccc(Cl)cc1",
    "growth [%]": 97.3
  },
  {
    "compound": "C[N+]12CCC34C5=CC(=O)C(=O)C=C5[N+]5(C)C(=O)CC6OCC=C(C1)C(CC32)C6C45 (centres undefined)",
    "growth [%]": 114
  },
  {
    "compound": "O=P1(N(CCCl)CCCl)NCCCO1 (centres undefined)",
    "growth [%]": 104
  },
  {
    "compound": "CCC1(CCSC#N)C(=O)NC(=O)NC1=O",
    "growth [%]": 94.1
  }
]

###

system: MALME-3M melanoma; assay: NCI-60 one-dose screen, 48 h (100 = growth as untreated, 0 = no growth, -100 = all killed); conditions: 10 µM unless noted
This is part of a sample that, as a whole, favours compounds with a hit. Of some 83,000 tested, about 20% had one in any assay.

[
  {
    "molecule": "O=P1(N(CCCl)CCCl)NCCCO1 (configuration not stated)",
    "units.text": "%",
    "growth": 96.5
  },
  {
    "molecule": "O=C1c2ccccc2C(=O)N1N1CC1c1ccccc1 (configuration not stated)",
    "units.text": "%",
    "growth": 91.9
  },
  {
    "molecule": "COc1ccc(C(C#N)C(C)=O)cc1 (configuration not stated)",
    "units.text": "%",
    "growth": 108
  },
  {
    "molecule": "Nc1nc(=S)nc(N)[nH]1",
    "units.text": "%",
    "growth": 102
  },
  {
    "molecule": "O=c1c2ccccc2nc(-c2ccccc2Cl)n1-c1nnc(C(F)(F)F)s1",
    "units.text": "%",
    "growth": -11.5
  },
  {
    "molecule": "CCOC(=O)C1C(C=C(C)C)C1(C)C (configuration not stated)",
    "units.text": "%",
    "growth": 140
  },
  {
    "molecule": "O=S(=O)(F)c1cccc(Cl)c1C[P+](c1ccccc1)(c1ccccc1)c1ccccc1",
    "units.text": "%",
    "growth": 90.4
  },
  {
    "molecule": "N#CC(C#N)=C(C#N)C#N",
    "units.text": "%",
    "growth": 108
  },
  {
    "molecule": "COC12CC3C4=CCOC5CC(=O)N6c7ccccc7C1(CCN2C4)C6C53 (configuration not stated)",
    "units.text": "%",
    "growth": 112
  },
  {
    "molecule": "COc1ccc(N(CC(=O)NCCC[Te]c2ccccc2)C(=O)c2ccccc2)cc1",
    "units.text": "%",
    "growth": 129
  },
  {
    "molecule": "COc1ccc(N)cc1OC",
    "units.text": "%",
    "growth": 129
  },
  {
    "molecule": "Cn1cc(C(=O)C[n+]2ccccc2)c2ccccc21",
    "units.text": "%",
    "growth": 96.7
  },
  {
    "molecule": "C=CCOC(=O)C(Br)CC (configuration not stated)",
    "units.text": "%",
    "growth": 99.9
  },
  {
    "molecule": "CC(=O)Cc1ccc2c(c1)OCO2",
    "units.text": "%",
    "growth": 116
  },
  {
    "molecule": "COc1cc(C2C3=C(CCCC3=O)N(CCO)c3cc4c(cc32)CCC4)cc(OC)c1OC (configuration not stated)",
    "units.text": "%",
    "growth": 93.1
  },
  {
    "molecule": "CC[C@H](C)[C@H](NC(=O)[C@H]1CCCCN1C)C(=O)N(C)[C@H](C(=O)NC12CC(C(=O)N[C@@H](Cc3ccccc3)C[C@H](C)C(=O)OC)(C1)C2)C(C)C",
    "units.text": "%",
    "growth": 106
  },
  {
    "molecule": "O=NN(c1ccccc1)c1ccccc1",
    "units.text": "%",
    "growth": 86.2
  }
]

###

Tested on: COLO 205 colon
Assay: NCI-60 one-dose screen, 48 h
Details: 10 µM unless noted
Protocol: Cells are grown in 96 well plates and exposed to the test compound for 48 hours. Compounds are tested at a single concentration, which is 10^-5 M for most compounds. The reported endpoint is percent growth (GI% or GIPRCNT), where numbers from 0 - 100% represent growth inhibition, and numbers from -100% - 0 represent cell death. For example, a value of 40 represents 60% growth inhibition. A value of 0 means no net growth occurred over the course of the experiment. […]
This is part of a sample that, as a whole, favours compounds with a hit. Of some 83,000 tested, about 20% had one in any assay. Active and inactive are the calls of the source. Rule for the calls: active = growth percent below 10; inactive = the rest.
Outcomes: t = active, f = inactive

[
  {
    "compound": "Cc1nc2ccccc2c(=O)n1-c1ccccc1F",
    "assigned.label": "f"
  },
  {
    "compound": "CC[C@H](C)[C@H](NC(=O)CN(C)C)C(=O)N(C)[C@H](C[C@@H](OC(C)=O)c1nc(C(=O)NC23CC(C(=O)OC)(C2)C3)cs1)C(C)C",
    "assigned.label": "t"
  },
  {
    "compound": "CC1(C)N(Nc2ccccc2)C(=O)C2CCCN21 (stereo not drawn)",
    "assigned.label": "f"
  }
]

###

Test system: ACHN renal
Assay: NCI-60 one-dose screen, 48 h (100 = growth as untreated, 0 = no growth, -100 = all killed)
Settings: 10 µM unless noted
Protocol: Growth inhibition of the ACHN human tumor cell line is measured as a screen for anti-cancer activity. Cells are grown in 96 well plates and exposed to the test compound for 48 hours. Compounds are tested at a single concentration, which is 10^-5 M for most compounds. The reported endpoint is percent growth (GI% or GIPRCNT), where numbers from 0 - 100% represent growth inhibition, and numbers from -100% - 0 represent cell death. For example, a value of 40 represents 60% growth inhibition. […]
The panel holds about 83,000 compounds, 20% with a hit somewhere; the sample as a whole holds those more often.
Below, each of the compounds is paired with its reported growth value.
readout.name: growth (%)

[
  {
    "compound": "O=P1(N(CCCl)CCCl)NCCCO1 (centres undefined)",
    "readout.name": "growth",
    "units.text": "%",
    "observed.measurement": 103
  },
  {
    "compound": "CC12CCC3C4CCC(=O)C=C4CCC3C1CC1CC(=O)OC12 (centres undefined)",
    "readout.name": "growth",
    "units.text": "%",
    "observed.measurement": 103
  },
  {
    "compound": "O=S(=O)(F)c1cccc(Cl)c1C[P+](c1ccccc1)(c1ccccc1)c1ccccc1",
    "readout.name": "growth",
    "units.text": "%",
    "observed.measurement": 97.7
  },
  {
    "compound": "CC[C@H](C)[C@H](NC(=O)[C@H]1CCCCN1C)C(=O)N(C)[C@H](C[C@@H](OC(C)=O)c1nc(C(=O)NC23C4C5C2C2C3C4C52C(=O)OC)cs1)C(C)C (some centres undefined)",
    "readout.name": "growth",
    "units.text": "%",
    "observed.measurement": 16.2
  },
  {
    "compound": "CC[C@H](C)[C@H](NC(=O)[C@H]1CCCCN1C)C(=O)N(C)[C@H](C[C@@H](OC(C)=O)c1nc(C(=O)N[C@@H](Cc2ccccc2)C[C@H](C)C(=O)O)cs1)C(C)C",
    "readout.name": "growth",
    "units.text": "%",
    "observed.measurement": 14.3
  },
  {
    "compound": "O=NN1CCCCC1",
    "readout.name": "growth",
    "units.text": "%",
    "observed.measurement": 101
  },
  {
    "compound": "COc1cc(C=C2C(=O)NC(=O)NC2=O)ccc1O",
    "readout.name": "growth",
    "units.text": "%",
    "observed.measurement": 101
  },
  {
    "compound": "O=[N+]([O-])c1ccc(OCc2ccc(S(=O)(=O)F)c(Cl)c2)c(Cl)c1",
    "readout.name": "growth",
    "units.text": "%",
    "observed.measurement": 92.7
  },
  {
    "compound": "Cc1nc2ccccc2c(=O)n1-c1ccccc1F",
    "readout.name": "growth",
    "units.text": "%",
    "observed.measurement": 104
  }
]

###

tested on: NCI-H226 lung; assay: NCI-60 one-dose screen, 48 h (100 = growth as untreated, 0 = no growth, -100 = all killed); conditions: 10 µM unless noted
Compounds without any hit were thinned out: in the full panel of roughly 83,000, 20% have a hit.

[
  {
    "compound": "O=C1CN2CCC1CC2",
    "growth, %": 96.8
  },
  {
    "compound": "O=C(CBr)OCCOC(=O)CBr",
    "growth, %": 109
  },
  {
    "compound": "S=P(SP(=S)(c1ccccc1)c1ccccc1)(c1ccccc1)c1ccccc1",
    "growth, %": 96.6
  },
  {
    "compound": "CCN1C(=O)CC(=O)N(CC)C1=S",
    "growth, %": 103
  },
  {
    "compound": "Cc1cc2c(cc1-c1ccnc(/C=C/C(=O)O)c1)C(C)(C)CCC2(C)C",
    "growth, %": 78.8
  },
  {
    "compound": "Cc1ccc(P(=O)(O)O)cc1",
    "growth, %": 99.2
  },
  {
    "compound": "C[C@]12CC[C@H]3[C@@H](CC=C4c5nc(N)sc5CC[C@@]43C)[C@@H]1CC[C@@H]2O",
    "growth, %": 97.1
  },
  {
    "compound": "C[C@]12CCc3sc(Nc4ccc(O)cc4)nc3C1=CC[C@@H]1[C@@H]2CC[C@]2(C)C(=O)CC[C@@H]12",
    "growth, %": 103
  },
  {
    "compound": "c1ccc(CCN2CCCCC2)nc1",
    "growth, %": 101
  },
  {
    "compound": "NC(=O)Oc1cc(OC(N)=O)cc(N(CCCl)CCCl)c1",
    "growth, %": 79.5
  },
  {
    "compound": "O=[N+]([O-])c1ccc(CI)cc1",
    "growth, %": 94.6
  },
  {
    "compound": "O=P1(N(CCCl)CCCl)NCCCO1 (stereo not drawn)",
    "growth, %": 101
  },
  {
    "compound": "O=C1CCCCC1CN1CCCCC1 (stereo not drawn)",
    "growth, %": 104
  },
  {
    "compound": "Cc1c(C)c(N)c(C)c(C)c1N",
    "growth, %": 98.5
  },
  {
    "compound": "N#CC(C#N)=Cc1cccc(F)c1",
    "growth, %": 103
  },
  {
    "compound": "CO/N=C1\\CC[C@]2(C)[C@H]3CC[C@]4(C)C(=O)CC[C@H]4[C@@H]3C[C@@H]3SC(N)=N[C@@]32C1",
    "growth, %": 107
  },
  {
    "compound": "COCC1OC2OC3C(COC)OC(OC4C(COC)OC(OC5C(COC)OC(OC6C(COC)OC(OC7C(COC)OC(OC8C(COC)OC(OC1C(O)C2O)C(O)C8O)C(O)C7O)C(O)C6O)C(O)C5O)C(O)C4O)C(O)C3O (stereo not drawn) (tested in a mixture with another compound)",
    "growth, %": 102
  },
  {
    "compound": "CC12CCC3C(CCC4CC(O)CCC43C)C1CCC2=O (stereo not drawn)",
    "growth, %": 98.1
  },
  {
    "compound": "N#CCCc1ccccc1",
    "growth, %": 95.4
  },
  {
    "compound": "ClC1OC(Cl)(Cl)C(Cl)(Cl)OC1(Cl)Cl (stereo not drawn)",
    "growth, %": 94.7
  },
  {
    "compound": "C/C(=N/OC(=O)N(C)C)c1ccc(Cl)c(Cl)c1",
    "growth, %": 102
  },
  {
    "compound": "COc1cc2c(cc1OC)[C@@H]1C(=O)c3ccc4c(c3O[C@@H]1CO2)C[C@H](C(C)C)O4",
    "growth, %": 62.8
  },
  {
    "compound": "CC[C@H](C)[C@H](NC(=O)[C@H]1CCCCN1C)C(=O)N(C)[C@H](C[C@@H](OC(C)=O)c1cccc(C(=O)N[C@@H](Cc2ccccc2)C[C@H](C)C(=O)OC)n1)C(C)C",
    "growth, %": 23.3
  },
  {
    "compound": "CCCCOCCOP(=O)(OCCOCCCC)OCCOCCCC",
    "growth, %": 90.6
  },
  {
    "compound": "Nc1ccc2c(c1)Cc1cc(N)ccc1-2",
    "growth, %": 91.4
  },
  {
    "compound": "C=CC1CN2CCC1CC2C(O)c1ccnc2ccccc12 (stereo not drawn)",
    "growth, %": 112
  },
  {
    "compound": "COc1cc2c(cc1OC)-c1c3c(cc4c1[C@@H](C2)N(C)CC4)OCO3",
    "growth, %": 51
  },
  {
    "compound": "C=CC[PH+](c1ccccc1)c1ccccc1.C=CC[PH+](c1ccccc1)c1ccccc1.[Pt+2].[S-]c1ncccn1.[S-]c1ncccn1",
    "growth, %": 3.04
  }
]
